This collection of values is drawn from patent US20260242478A1.

# assayed_system: T1, Anti-CD28 Fab (SEQ ID NOs: 696, 697)
# T1 construct: Biotinylated and captured on neutravidin coated plates in the phage ELISA
# T1 sequence (VH, as listed by the source, chain 1 of 2): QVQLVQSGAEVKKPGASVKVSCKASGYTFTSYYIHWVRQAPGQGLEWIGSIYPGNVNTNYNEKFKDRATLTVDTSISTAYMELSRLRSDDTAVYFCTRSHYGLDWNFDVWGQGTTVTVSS
# T1 sequence (VL, as listed by the source, chain 2 of 2): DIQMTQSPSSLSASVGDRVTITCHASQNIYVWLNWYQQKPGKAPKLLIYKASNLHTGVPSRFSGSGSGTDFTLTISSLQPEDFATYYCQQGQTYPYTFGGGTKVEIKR
# procedure_details: phage binding ELISA on anti-CD28 Fab plate pre-incubated with CD28 antigen as competitor; anti-M13 HRP detection
assay_readout: Anti-CD28 Fab signal in the presence of CD28 (phage binding ELISA)
Field format: numeric only.

Answered cases to consult:
{"binder": "YCEGHAPEHMAKCL (peptide, not shown: large carriers, Clonal phage supernatant of the Peptide-87 library) [Phage-664]", "quantitative_readout": 0.1}
{"binder": "YCAGHSPEYMGKCM (peptide, not shown: large carriers, Clonal phage supernatant of the Peptide-87 library) [Phage-659]", "quantitative_readout": 0.06}
{"binder": "YCEGHSPEYMSHCF (peptide, not shown: large carriers, Clonal phage supernatant of the Peptide-87 library) [Phage-666]", "quantitative_readout": 0.09}
{"binder": "YCDGHAQEFMSKCL (peptide, not shown: large carriers, Clonal phage supernatant of the Peptide-87 library) [Phage-668]", "quantitative_readout": 0.12}
{"binder": "YCMGHLPQYMEKCL (peptide, not shown: large carriers, Clonal phage supernatant of the Peptide-87 library) [Phage-662]", "quantitative_readout": 0.08}

Here is another binder to look at.
The recorded Anti-CD28 Fab signal in the presence of CD28 (phage binding ELISA) for YCAGHLPEHIGKCL (peptide, not shown: large carriers, Clonal phage supernatant of the Peptide-87 library) [Phage-657] is 0.07
